Cited source: ChEMBL document CHEMBL3870311

system tested: DNA topoisomerase 2-alpha (Homo sapiens, UniProt P11388)
Sequence (P11388 whole entry): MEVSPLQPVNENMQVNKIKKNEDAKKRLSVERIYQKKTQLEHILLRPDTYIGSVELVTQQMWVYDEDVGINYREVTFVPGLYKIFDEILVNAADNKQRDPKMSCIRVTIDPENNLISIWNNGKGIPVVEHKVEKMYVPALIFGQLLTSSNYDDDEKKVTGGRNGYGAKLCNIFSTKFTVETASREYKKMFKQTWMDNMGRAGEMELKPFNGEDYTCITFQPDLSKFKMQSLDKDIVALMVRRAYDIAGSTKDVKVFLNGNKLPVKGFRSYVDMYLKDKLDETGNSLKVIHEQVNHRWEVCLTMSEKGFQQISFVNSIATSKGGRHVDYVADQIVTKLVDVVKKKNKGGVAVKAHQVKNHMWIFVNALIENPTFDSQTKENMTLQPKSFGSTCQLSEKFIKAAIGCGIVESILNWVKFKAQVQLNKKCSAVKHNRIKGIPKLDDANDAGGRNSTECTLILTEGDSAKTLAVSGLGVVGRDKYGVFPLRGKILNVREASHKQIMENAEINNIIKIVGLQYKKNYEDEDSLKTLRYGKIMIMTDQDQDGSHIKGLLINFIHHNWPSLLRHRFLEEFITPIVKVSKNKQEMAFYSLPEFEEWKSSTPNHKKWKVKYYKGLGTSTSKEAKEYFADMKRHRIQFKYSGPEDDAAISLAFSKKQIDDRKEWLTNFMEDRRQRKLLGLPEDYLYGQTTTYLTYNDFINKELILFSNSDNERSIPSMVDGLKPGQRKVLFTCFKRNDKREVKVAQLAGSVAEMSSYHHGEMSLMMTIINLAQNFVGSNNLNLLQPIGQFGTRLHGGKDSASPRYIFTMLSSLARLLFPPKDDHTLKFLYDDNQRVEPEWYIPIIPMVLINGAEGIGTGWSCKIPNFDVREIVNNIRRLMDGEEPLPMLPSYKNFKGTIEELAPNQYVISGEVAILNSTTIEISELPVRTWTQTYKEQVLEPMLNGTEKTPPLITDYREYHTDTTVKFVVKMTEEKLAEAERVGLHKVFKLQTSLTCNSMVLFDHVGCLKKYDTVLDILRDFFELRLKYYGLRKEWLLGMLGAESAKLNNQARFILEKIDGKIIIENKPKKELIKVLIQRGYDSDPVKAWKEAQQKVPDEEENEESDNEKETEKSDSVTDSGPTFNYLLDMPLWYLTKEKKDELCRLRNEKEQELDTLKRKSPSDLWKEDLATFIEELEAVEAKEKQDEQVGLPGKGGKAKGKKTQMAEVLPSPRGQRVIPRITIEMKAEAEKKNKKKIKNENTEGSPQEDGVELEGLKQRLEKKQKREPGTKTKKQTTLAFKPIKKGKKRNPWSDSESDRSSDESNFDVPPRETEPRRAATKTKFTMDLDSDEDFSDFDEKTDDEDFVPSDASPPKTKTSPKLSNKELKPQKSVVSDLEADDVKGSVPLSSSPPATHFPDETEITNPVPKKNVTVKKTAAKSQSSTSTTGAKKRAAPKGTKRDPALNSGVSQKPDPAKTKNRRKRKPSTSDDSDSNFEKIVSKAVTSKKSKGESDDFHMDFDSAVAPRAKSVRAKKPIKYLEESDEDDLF
assay: Inhibition of human topoisomerase-2 alpha at 20 uM using supercoiled pBR322 DNA as substrate after 30 mins by agarose gel electrophoresis relative to control
measured quantity: inhibition (%)
Give bare numbers, in %.

compound | units of measure | inhibition
CCCCNCC(O)COc1cc(OCc2ccc(OC)cc2)c2c(=O)c3ccccc3oc2c1 (stereo not given) | % | 21.1
CCCCNCC(O)COc1cc(OCCc2cccc(Cl)c2)c2c(=O)c3ccccc3oc2c1 (stereo not given) | % | 16.6
CCCCNCC(O)COc1cc(OCc2cccc(Cl)c2)c2c(=O)c3cccc(OC)c3oc2c1 (stereo not given) | % | 6.3
CCCCNCC(O)COc1cc(OCc2cccc(C(F)(F)F)c2)c2c(=O)c3ccccc3oc2c1 (stereo not given) | % | 9.3

Kindly review the next compound as well.
Read the entry CCCCNCC(O)COc1cc(OCc2ccc(OC)cc2)c2c(=O)c3cccc(OC)c3oc2c1 (stereo not given) and write its reported inhibition.
13.9
